B1: HDV Ribozyme (parent)
chain: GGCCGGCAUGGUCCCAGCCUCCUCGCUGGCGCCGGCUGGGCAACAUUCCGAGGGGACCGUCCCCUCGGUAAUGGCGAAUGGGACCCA

Variants of: B1
ASSAY OVERVIEW: self-cleavage, relative activity (ratio to wild type); higher = more cleavage; co-transcriptional
Decide using self-cleavage: a value greater than or equal to 0.4 is Condition met, a smaller one is Condition not met.

Example entries begin here.
[[record]]
variant_descriptor = "C26U U60G"
class = "Condition met"

[[record]]
variant_descriptor = "C24U A78U"
class = "Condition not met"


Exam item: Does G10C A78U have a reported self-cleavage of at least 0.4?
Marked response: Condition not met

Exam item: Does G2C C22G have a reported self-cleavage of at least 0.4?
Marked response: Condition not met

Exam item: Does G2U G35C have a reported self-cleavage of at least 0.4?
Marked response: Condition not met

Exam item: Does C24G G81A have a reported self-cleavage of at least 0.4?
Marked response: Condition not met
